assay: Cmax in plasma of female Ncr nude mouse bearing HCT116 tumor xenografts at 30 mg/kg, sc dosed as single administration measured up to 24 hrs post dose; assay type: ADME, organism-based; design: dose 30 mg/kg, route subcutaneous
Reported Cmax by item:
I only need the number, in µM, no unit after it.

* CO[C@H]1Cc2ccccc2[C@H]1Nc1cc(O[C@@H]2C[C@@H](COS(N)(=O)=O)[C@@H](O)C2)ncn1 | 27.1

Now take the following compound into account.
Kindly indicate its recorded Cmax. Item: CO[C@H]1Cc2cc(Cl)ccc2C1Nc1cc(O[C@@H]2CC(COS(N)(=O)=O)[C@@H](O)C2)ncn1 (single isomer, unassigned)
24.2
